IC50 values for the molecules below.
Molecular target: human EHMT2 913-1193 (Homo sapiens, UniProt Q96KQ7)
Construct: recombinant purified human EHMT2 913-1193, Viva; purchased Viva
Sequence (Q96KQ7 913-1193): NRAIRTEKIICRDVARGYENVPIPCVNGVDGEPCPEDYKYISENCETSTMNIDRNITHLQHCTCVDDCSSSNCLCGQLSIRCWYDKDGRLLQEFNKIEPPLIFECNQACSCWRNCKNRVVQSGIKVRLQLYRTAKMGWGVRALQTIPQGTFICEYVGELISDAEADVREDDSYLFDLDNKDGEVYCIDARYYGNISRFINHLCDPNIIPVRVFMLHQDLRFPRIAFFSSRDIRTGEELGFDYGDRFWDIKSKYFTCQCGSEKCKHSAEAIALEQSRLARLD
Test: biochemical
Conditions: recombinant human EHMT2 913-1193, histone H3 1-15 peptide, 3H-SAM, balanced conditions; read-out: EHMT2 PEP (IC50 μM)

Some solved entries appear below for comparison.
Per the reported human EHMT2 913-1193 (Homo sapiens, UniProt Q96KQ7) data, `NC1=Nc2cc(OCCCN3CCCC3)c(-c3ccccc3)cc2C12CCC2` has IC50 of > 10 µM

Per the reported human EHMT2 913-1193 (Homo sapiens, UniProt Q96KQ7) data, `COc1cc2[nH]c(N)nc2cc1OCCCN1CCCC1` has IC50 of < 0.1 µM

Per the reported human EHMT2 913-1193 (Homo sapiens, UniProt Q96KQ7) data, `CNC1=Nc2cc(C#CCN3CCCC3)c(OC)cc2C12CCC2` has IC50 of < 0.1 µM

More entries:
Per the reported human EHMT2 913-1193 (Homo sapiens, UniProt Q96KQ7) data, `CCn1c(NC)nc2cc(OCCCN3CCCC3)c(OC)cc21` has IC50 of < 0.1 µM

Per the reported human EHMT2 913-1193 (Homo sapiens, UniProt Q96KQ7) data, `COc1cc2c(cc1OCCCN1CCCCC1)N=C(N)C21CCC1` has IC50 of < 0.1 µM

Per the reported human EHMT2 913-1193 (Homo sapiens, UniProt Q96KQ7) data, `CCn1c(NC)nc2cc(CNCCN3CCCC3)c(OC)cc21` has IC50 of < 0.1 µM

Per the reported human EHMT2 913-1193 (Homo sapiens, UniProt Q96KQ7) data, `CCNc1nc2cc(OCCCN3CCCC3)c(OC)cc2n1CC` has IC50 of < 0.1 µM

Per the reported human EHMT2 913-1193 (Homo sapiens, UniProt Q96KQ7) data, `COc1cc2c(cc1C#CCN1CCCC1)N=C(N)C21CCC1` has IC50 of < 0.1 µM

Per the reported human EHMT2 913-1193 (Homo sapiens, UniProt Q96KQ7) data, `NC1=Nc2cc(OCCCN3CCCC3)c(-c3cccnc3)cc2C12CCC2` has IC50 of > 10 µM

###

Target: EHMT2 (Homo sapiens)
Construct: endogenous in cells; host or cells: MDA-MB-231 (ATCC)
Sequence (Q96KQ7 1-1210): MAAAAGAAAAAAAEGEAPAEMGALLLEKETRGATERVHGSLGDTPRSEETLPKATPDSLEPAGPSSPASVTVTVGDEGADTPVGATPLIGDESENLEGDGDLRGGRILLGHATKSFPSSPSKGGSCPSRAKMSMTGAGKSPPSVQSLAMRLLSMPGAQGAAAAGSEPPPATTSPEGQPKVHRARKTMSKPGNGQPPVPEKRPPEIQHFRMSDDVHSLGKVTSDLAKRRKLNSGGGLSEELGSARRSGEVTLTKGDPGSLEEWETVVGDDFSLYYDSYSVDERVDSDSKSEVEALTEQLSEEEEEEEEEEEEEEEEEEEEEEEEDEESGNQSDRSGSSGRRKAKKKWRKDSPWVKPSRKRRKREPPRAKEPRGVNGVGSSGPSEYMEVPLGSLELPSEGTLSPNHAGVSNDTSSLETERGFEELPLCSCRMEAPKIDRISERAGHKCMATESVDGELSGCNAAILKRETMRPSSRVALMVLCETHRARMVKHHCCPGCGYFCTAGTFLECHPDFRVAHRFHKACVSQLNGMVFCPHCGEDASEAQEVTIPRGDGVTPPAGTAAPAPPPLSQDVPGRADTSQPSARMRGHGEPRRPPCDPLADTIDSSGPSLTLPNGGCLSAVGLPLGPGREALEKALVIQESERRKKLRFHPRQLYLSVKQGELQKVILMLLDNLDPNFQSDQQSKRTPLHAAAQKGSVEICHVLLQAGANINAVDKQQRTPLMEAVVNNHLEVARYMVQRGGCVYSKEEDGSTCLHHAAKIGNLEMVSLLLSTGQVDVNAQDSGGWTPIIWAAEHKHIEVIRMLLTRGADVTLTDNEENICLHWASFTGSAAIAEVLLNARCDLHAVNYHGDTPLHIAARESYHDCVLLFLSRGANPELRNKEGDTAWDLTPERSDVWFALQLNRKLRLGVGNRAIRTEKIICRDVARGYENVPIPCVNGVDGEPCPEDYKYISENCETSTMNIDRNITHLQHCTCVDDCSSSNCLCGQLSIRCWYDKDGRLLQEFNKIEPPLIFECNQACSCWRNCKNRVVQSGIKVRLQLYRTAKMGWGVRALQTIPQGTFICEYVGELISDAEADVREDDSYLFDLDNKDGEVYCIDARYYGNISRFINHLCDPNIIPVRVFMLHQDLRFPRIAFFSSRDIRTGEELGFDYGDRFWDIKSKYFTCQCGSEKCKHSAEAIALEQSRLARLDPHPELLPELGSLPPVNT
Experiment: MDA-MB-231 H3K9me2 in-cell Western assay (EHMT2 ICW)
Assay type: cell-based
Conditions: MDA-MB-231 cells, H3K9me2 in-cell Western; read-out: EHMT2 ICW (IC50 μM)
measurementKind: IC50

Some solved entries appear below for comparison.
For this molecule ( CNc1nc2cc(OC[C@H](O)CN3CCCC3)c(OC)cc2n1C [Compound 26] ), measured IC50 is 0.1 to 1 µM

For this molecule ( CNc1nc2cc(CNCCN3CCCC3)c(C)cc2n1C(C)C [Compound 139] ), measured IC50 is 1 to 10 µM

For this molecule ( CNc1nc2cc(OCCCN3CCCC3)c(OC)cc2n1C1CCOCC1 [Compound 13] ), measured IC50 is 0.1 to 1 µM

For this molecule ( CCNc1nc2cc(OC[C@H](O)CN3CCCC3)c(OC)cc2n1C [Compound 31] ), measured IC50 is 0.1 to 1 µM

For this molecule ( CNc1nc2cc(CNCCN3CCCC3)c(OC)cc2n1C [Compound 37] ), measured IC50 is 0.1 to 1 µM

More entries:
For this molecule ( CNC1=Nc2cc(C#CCN3CCC(F)C3)c(OC)cc2C12CCC2 (centres unmarked) [Compound 100] ), measured IC50 is 1 to 10 µM

For this molecule ( COc1cc2c(cc1OCCCN1CCCC1)nc(NC1CCCC1)n2C [Compound 30] ), measured IC50 is 1 to 10 µM

For this molecule ( CNC1=Nc2cc(C#CCN3CCCCC3)c(OC)cc2C12CCC2 [Compound 75] ), measured IC50 is < 0.1 µM

For this molecule ( CNC1=Nc2cc(C#C[C@H](C)N3CCCC3)c(OC)cc2C12CCC2 [Compound 85] ), measured IC50 is < 0.1 µM

For this molecule ( CNC1=Nc2cc(C#C[C@@H](C)N3CCCC3)c(OC)cc2C12CCC2 [Compound 86] ), measured IC50 is 0.1 to 1 µM

For this molecule ( COc1cc2c(cc1OCCCN1CCCC1)nc(N)n2C(C)C [Compound 19] ), measured IC50 is 0.1 to 1 µM

The reported numbers originate from patent US20220274961A1.
